Test system: MOLT-4 leukemia
Assay notes: NCI tumour cell line growth inhibition, 48 h
Measured endpoint: TGI

[in] # TGI lookup, item O=C1C(Cl)C2(CC(/C=C/c3ccccc3O)=NN2c2cccc(S(=O)(=O)O)c2)N1c1nc2ccccc2s1 (centres undefined)
[out] 47.7 µM

[in] Suppose we examine the molecule CC(=O)Oc1c2c(c(CC=C(C)C)c3c1C(=O)C1=C[C@@H]4CC5C(C)(C)OC(C/C=C(/C)C(=O)O)(C4=O)[C@@]15O3)OC(C)(CCC=C(C)C)C=C2 (some centres undefined) ; what TGI value has been reported?
[out] 32 µM

[in] Give the measured TGI of O=[N+]1ON=C(c2ccccc2)C1=C1C(c2c(-c3ccccc3)no[n+]2[O-])=NON1[O-] .
[out] > 100 µM

[in] Form field: reported TGI of O=C(Nc1c(C(=O)NC2CCCCC2)[nH]c(=O)[nH]c1=O)c1ccc(Cl)cc1
[out] > 100 µM

[in] Which TGI value belongs to COc1cccc2c3ccccc3c3nc[nH]c3c12 ?
[out] 28.4 µM

[in] Fill in the blank: the reported TGI of Cc1nc2c(cc1C(=O)N/N=C/c1ccc([N+](=O)[O-])cc1)c(=O)n(C)c(=O)n2C is ____.
[out] > 100 µM

[in] Fill blank: measured TGI of the molecule N#Cc1cc([N+](=O)[O-])ccc1NC(=O)C(F)(F)F is ____.
[out] > 100 µM

[in] Quick one: TGI of NS(=O)(=O)c1ccc(NCc2cnc3ccccc3n2)cc1 ?
[out] > 100 µM

[in] Fill in: TGI of CCOP(=O)(Nc1ccccc1P(=O)(OCC)OCC)OCC is ___
[out] > 100 µM
